Lab note: Ki readings collected with Adenosine receptor A1 (Rattus norvegicus) for the following compounds.
Sequence (P25099 whole entry): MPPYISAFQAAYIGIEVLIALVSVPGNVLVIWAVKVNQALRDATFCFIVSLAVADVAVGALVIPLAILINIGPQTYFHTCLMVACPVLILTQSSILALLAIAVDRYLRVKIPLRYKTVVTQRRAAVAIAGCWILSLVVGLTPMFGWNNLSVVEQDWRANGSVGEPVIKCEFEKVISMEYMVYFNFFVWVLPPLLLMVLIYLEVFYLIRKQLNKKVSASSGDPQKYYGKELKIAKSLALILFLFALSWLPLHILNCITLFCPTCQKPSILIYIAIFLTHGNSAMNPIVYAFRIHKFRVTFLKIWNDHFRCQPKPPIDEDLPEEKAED
Give the quantity in µM, number only.

compound: CCCCCC[C@H]([C@H](C)O)n1cnc2c(N)ncnc21 (relative stereo)
propertyName: Ki
number: 0.455

API: the following record is the query input.
Dear colleague, please send me the reported Ki for Nc1ncnc2c1N([C@H]1O[C@@H](CO)[C@H](O)[C@@H]1O)CN2 [T-7-Riboside] when you can.
27
